Target: UniProt:P07858
Assay: Inhibition of recombinant cathepsin-B (unknown origin) using Z-Arg-Arg-AMC as substrate by fluorescence assay
pKi: −log10 of the molar value. Square brackets hold non-standard residues; d marks the D form. Peptide text beside a SMILES is read from it. ξ: configuration not given here. ξPip = O=C(O)C1CCCCN1
Cut-off 4 on pKi, inclusive. At or above means Y; below means N.

Is pKi for NCCCC[C@H](NC(=O)[C@H](Cc1ccccc1)NC(=O)CCc1ccccc1)C(N)=O at or above 4?
N

Is pKi for NCCCC[C@H](NC(=O)[C@H](Cc1ccccc1)NC(=O)OCc1ccccc1)C(N)=O at or above 4?
N

Is pKi for NCCC[C@H](NC(=O)[C@H](Cc1ccccc1)NC(=O)OCc1ccccc1)C(N)=O at or above 4?
N

Is pKi for CN(C)c1ccc(C(=O)N[C@@H](Cc2ccccc2)C(=O)N[C@@H](CCCCN)C(N)=O)cc1 at or above 4?
Y

Is pKi for Cc1ccccc1-c1ccc(C[C@H](NC(=O)OCc2ccccc2)C(=O)N[C@@H](CCCCN)C(N)=O)cc1 at or above 4?
N

Is pKi for NCCCC[C@H](NC(=O)[C@H](Cc1ccccc1)NC(=O)c1ccc2ccccc2c1)C(N)=O at or above 4?
N

Is pKi for NCCCC[C@H](NC(=O)[C@H](Cc1ccccc1)NC(=O)C1CCCCN1)C(N)=O (stereo partly drawn) (H-[ξPip]-Phe-Lys-NH2) at or above 4?
Y

Is pKi for NCCCC[C@H](NC(=O)[C@H](Cc1ccc(-c2cccc(N)c2)cc1)NC(=O)OCc1ccccc1)C(N)=O at or above 4?
Y

---

Target: Cathepsin B (Homo sapiens, UniProt P07858)
Assay: Inhibition of recombinant cathepsin-B (unknown origin) using Z-Arg-Arg-AMC as substrate by fluorescence assay
pKi: −log10 of the molar value. Square brackets hold non-standard residues; d marks the D form. Peptide text beside a SMILES is read from it. * marks the point of attachment. Bip = N[C@@H](Cc1ccc(-c2ccccc2)cc1)C(=O)O; Cbz = O=C(OCc1ccccc1)*
Cut-off 3 on pKi, inclusive. At or above means condition met; below means condition not met.

Is pKi for NCCCC[C@H](NC(=O)[C@H](Cc1ccccc1)NC(=O)c1ccccn1)C(N)=O at or above 3?
condition met

Is pKi for CSCC[C@H](NC(=O)[C@H](Cc1ccccc1)NC(=O)OCc1ccccc1)C(N)=O (Cbz-Phe-Met-NH2) at or above 3?
condition not met

Is pKi for NCCCC[C@H](NC(=O)[C@H](Cc1c[nH]cn1)NC(=O)OCc1ccccc1)C(N)=O (Cbz-His-Lys-NH2) at or above 3?
condition met

Is pKi for NCCCC[C@H](NC(=O)[C@H](Cc1ccccc1)NC(=O)CCc1ccc(O)cc1)C(N)=O at or above 3?
condition met

Is pKi for NCCCC[C@H](NC(=O)[C@H](Cc1ccc(-c2ccccc2)cc1)NC(=O)OCc1ccccc1)C(N)=O (Cbz-[Bip]-Lys-NH2) at or above 3?
condition met

Is pKi for NCCCC[C@H](NC(=O)[C@H](Cc1c[nH]c2ccccc12)NC(=O)OCc1ccccc1)C(N)=O (Cbz-Trp-Lys-NH2) at or above 3?
condition met

Is pKi for CC(=O)Oc1ccc(C(=O)N[C@@H](Cc2ccccc2)C(=O)N[C@@H](CCCCN)C(N)=O)cc1 at or above 3?
condition met

Is pKi for N=C(N)NCCC[C@H](NC(=O)OCc1ccccc1)C(=O)N[C@@H](Cc1ccccc1)C(=O)N[C@@H](CCCCN)C(N)=O (Cbz-Arg-Phe-Lys-NH2) at or above 3?
condition not met

Is pKi for Cc1cccc(C)c1C(=O)N[C@@H](Cc1ccccc1)C(=O)N[C@@H](CCCCN)C(N)=O at or above 3?
condition not met

Is pKi for NCCCC[C@H](NC(=O)[C@H](Cc1ccc(O)cc1)NC(=O)OCc1ccccc1)C(N)=O (Cbz-Tyr-Lys-NH2) at or above 3?
condition met

Is pKi for Cc1ccc(-c2ccc(C[C@H](NC(=O)OCc3ccccc3)C(=O)N[C@@H](CCCCN)C(N)=O)cc2)cc1 at or above 3?
condition met

Is pKi for NCCCC[C@H](NC(=O)[C@H](Cc1ccccc1)NC(=O)[C@H](CCC(N)=O)NC(=O)OCc1ccccc1)C(N)=O (Cbz-Gln-Phe-Lys-NH2) at or above 3?
condition not met

---

Would you mind telling me the reported log10 Ki of each entry?
Target: Procathepsin L (Homo sapiens, UniProt P07711)
Sequence (P07711 whole entry): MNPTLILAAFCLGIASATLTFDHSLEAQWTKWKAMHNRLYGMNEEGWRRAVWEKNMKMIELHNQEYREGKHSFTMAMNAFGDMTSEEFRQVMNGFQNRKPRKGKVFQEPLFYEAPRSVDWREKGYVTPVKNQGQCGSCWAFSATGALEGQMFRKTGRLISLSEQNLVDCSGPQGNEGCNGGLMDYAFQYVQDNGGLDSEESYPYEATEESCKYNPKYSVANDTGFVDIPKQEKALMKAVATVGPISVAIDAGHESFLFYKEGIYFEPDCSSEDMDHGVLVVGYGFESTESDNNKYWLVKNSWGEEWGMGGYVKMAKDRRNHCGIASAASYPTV
Test: Inhibition of recombinant cathepsin-L (unknown origin) using Z-Phe-Arg-AMC as substrate by fluorescence assay
Square brackets hold non-standard residues; d marks the D form. Peptide text beside a SMILES is read from it. * marks the point of attachment. ξ: configuration not given here. Cbz = O=C(OCc1ccccc1)*; ξPip = O=C(O)C1CCCCN1
Values are log10 of Ki in µM.

I'm curious: which log10 Ki was measured for NCCCC[C@H](NC(=O)[C@H](Cc1ccccc1)NC(=O)C1=CCCC1)C(N)=O tested on Procathepsin L (Homo sapiens, UniProt P07711)?
0.89

I'm curious: which log10 Ki was measured for NCCCC[C@H](NC(=O)[C@H](Cc1ccccc1)NC(=O)c1ccc(-c2ccccc2)cc1)C(N)=O tested on Procathepsin L (Homo sapiens, UniProt P07711)?
0.95

I'm curious: which log10 Ki was measured for CC(C)C[C@H](NC(=O)OCc1ccccc1)C(=O)N[C@@H](Cc1ccccc1)C(=O)N[C@@H](CCCCN)C(N)=O (Cbz-Leu-Phe-Lys-NH2) tested on Procathepsin L (Homo sapiens, UniProt P07711)?
-0.35

I'm curious: which log10 Ki was measured for NCCCC[C@H](NC(=O)[C@H](Cc1ccc(-c2cccc(N)c2)cc1)NC(=O)OCc1ccccc1)C(N)=O tested on Procathepsin L (Homo sapiens, UniProt P07711)?
0.26

I'm curious: which log10 Ki was measured for C[C@H](NC(=O)[C@H](Cc1ccccc1)NC(=O)OCc1ccccc1)C(N)=O tested on Procathepsin L (Homo sapiens, UniProt P07711)?
1.20

I'm curious: which log10 Ki was measured for Cc1cccc(C)c1C(=O)N[C@@H](Cc1ccccc1)C(=O)N[C@@H](CCCCN)C(N)=O tested on Procathepsin L (Homo sapiens, UniProt P07711)?
1.30

I'm curious: which log10 Ki was measured for NCCCC[C@H](NC(=O)[C@H](Cc1ccccc1)NC(=O)c1ccc(N)nc1)C(N)=O tested on Procathepsin L (Homo sapiens, UniProt P07711)?
0.70

I'm curious: which log10 Ki was measured for NCCCC[C@H](NC(=O)[C@H](Cc1c[nH]cn1)NC(=O)OCc1ccccc1)C(N)=O (Cbz-His-Lys-NH2) tested on Procathepsin L (Homo sapiens, UniProt P07711)?
0.49

I'm curious: which log10 Ki was measured for NC(=O)[C@H](CCCC(N)O)NC(=O)[C@H](Cc1ccccc1)NC(=O)OCc1ccccc1 (stereo not given in full) tested on Procathepsin L (Homo sapiens, UniProt P07711)?
1.43

I'm curious: which log10 Ki was measured for NCCCC[C@H](NC(=O)[C@H](Cc1ccc(-c2ccc(-c3ccccc3)cc2)cc1)NC(=O)OCc1ccccc1)C(N)=O tested on Procathepsin L (Homo sapiens, UniProt P07711)?
0.41

I'm curious: which log10 Ki was measured for NCCCC[C@H](NC(=O)[C@H](Cc1ccccc1)NC(=O)[C@H](CCC(N)=O)NC(=O)OCc1ccccc1)C(N)=O (Cbz-Gln-Phe-Lys-NH2) tested on Procathepsin L (Homo sapiens, UniProt P07711)?
0.85

I'm curious: which log10 Ki was measured for NCCCC[C@H](NC(=O)[C@H](Cc1ccccc1)NC(=O)c1ccc2ccccc2c1)C(N)=O tested on Procathepsin L (Homo sapiens, UniProt P07711)?
0.00

I'm curious: which log10 Ki was measured for NC(=O)[C@H](Cc1c[nH]cn1)NC(=O)[C@H](Cc1ccccc1)NC(=O)OCc1ccccc1 (Cbz-Phe-His-NH2) tested on Procathepsin L (Homo sapiens, UniProt P07711)?
1.15

I'm curious: which log10 Ki was measured for NCCCC[C@H](NC(=O)[C@H](Cc1ccccc1)NC(=O)c1ccc(Br)cc1)C(N)=O tested on Procathepsin L (Homo sapiens, UniProt P07711)?
0.36

I'm curious: which log10 Ki was measured for NC(=O)[C@H](N)NC(=O)[C@H](Cc1ccccc1)NC(=O)OCc1ccccc1 tested on Procathepsin L (Homo sapiens, UniProt P07711)?
1.45

I'm curious: which log10 Ki was measured for CC(C)(C)c1ccc(C(=O)N[C@@H](Cc2ccccc2)C(=O)N[C@@H](CCCCN)C(N)=O)cc1 tested on Procathepsin L (Homo sapiens, UniProt P07711)?
0.00

I'm curious: which log10 Ki was measured for NCCCC[C@H](NC(=O)[C@H](Cc1ccccc1)NC(=O)c1ccccn1)C(N)=O tested on Procathepsin L (Homo sapiens, UniProt P07711)?
0.74

I'm curious: which log10 Ki was measured for NCCC[C@H](NC(=O)[C@H](Cc1ccccc1)NC(=O)OCc1ccccc1)C(N)=O tested on Procathepsin L (Homo sapiens, UniProt P07711)?
0.54

I'm curious: which log10 Ki was measured for Cc1ccccc1-c1ccc(C[C@H](NC(=O)OCc2ccccc2)C(=O)N[C@@H](CCCCN)C(N)=O)cc1 tested on Procathepsin L (Homo sapiens, UniProt P07711)?
1.36

I'm curious: which log10 Ki was measured for NCCCC[C@H](NC(=O)[C@H](Cc1ccccc1)NC(=O)C1CCCCN1)C(N)=O (stereo partly drawn) (H-[ξPip]-Phe-Lys-NH2) tested on Procathepsin L (Homo sapiens, UniProt P07711)?
0.79

I'm curious: which log10 Ki was measured for Cc1cccc(-c2ccc(C[C@H](NC(=O)OCc3ccccc3)C(=O)N[C@@H](CCCCN)C(N)=O)cc2)c1 tested on Procathepsin L (Homo sapiens, UniProt P07711)?
0.40

I'm curious: which log10 Ki was measured for CC(C)C[C@H](NC(=O)[C@H](Cc1ccccc1)NC(=O)OCc1ccccc1)C(N)=O (Cbz-Phe-Leu-NH2) tested on Procathepsin L (Homo sapiens, UniProt P07711)?
1.15

I'm curious: which log10 Ki was measured for CC(=O)Oc1ccc(C(=O)N[C@@H](Cc2ccccc2)C(=O)N[C@@H](CCCCN)C(N)=O)cc1 tested on Procathepsin L (Homo sapiens, UniProt P07711)?
0.41

I'm curious: which log10 Ki was measured for NCCCC[C@H](NC(=O)[C@H](Cc1ccccc1)NC(=O)[C@H](CCCCN)NC(=O)OCc1ccccc1)C(N)=O (Cbz-Lys-Phe-Lys-NH2) tested on Procathepsin L (Homo sapiens, UniProt P07711)?
-0.05

I'm curious: which log10 Ki was measured for CSCC[C@H](NC(=O)[C@H](Cc1ccccc1)NC(=O)OCc1ccccc1)C(N)=O (Cbz-Phe-Met-NH2) tested on Procathepsin L (Homo sapiens, UniProt P07711)?
1.81
